# system-under-test: Adenosine receptor A2a (Homo sapiens, UniProt P29274)
# Sequence (P29274 whole entry): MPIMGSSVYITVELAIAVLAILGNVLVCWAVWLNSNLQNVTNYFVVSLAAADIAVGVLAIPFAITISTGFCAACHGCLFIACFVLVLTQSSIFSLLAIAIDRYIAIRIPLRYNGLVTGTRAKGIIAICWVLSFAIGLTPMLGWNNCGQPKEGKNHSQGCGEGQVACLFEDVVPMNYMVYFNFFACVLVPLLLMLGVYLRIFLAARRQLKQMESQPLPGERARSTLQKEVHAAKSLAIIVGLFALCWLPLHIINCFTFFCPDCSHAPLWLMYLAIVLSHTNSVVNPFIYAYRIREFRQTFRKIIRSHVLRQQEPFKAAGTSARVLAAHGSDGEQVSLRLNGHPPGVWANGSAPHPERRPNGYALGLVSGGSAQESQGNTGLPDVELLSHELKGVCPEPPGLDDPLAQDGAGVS
# assay: ADORA2A Eurofins SafetyScan (Receptor)
metric-name: EC50

Problem: Please list EC50 recorded for the compound `Cc1cn([C@H](C)CC#N)c(=O)c2cc(Cn3nc(C(F)F)cc3Cl)nn12`
Solution: > 10 µM

* * *

# system-under-test: Alpha-1A adrenergic receptor (Homo sapiens, UniProt P35348)
# Sequence (P35348 whole entry): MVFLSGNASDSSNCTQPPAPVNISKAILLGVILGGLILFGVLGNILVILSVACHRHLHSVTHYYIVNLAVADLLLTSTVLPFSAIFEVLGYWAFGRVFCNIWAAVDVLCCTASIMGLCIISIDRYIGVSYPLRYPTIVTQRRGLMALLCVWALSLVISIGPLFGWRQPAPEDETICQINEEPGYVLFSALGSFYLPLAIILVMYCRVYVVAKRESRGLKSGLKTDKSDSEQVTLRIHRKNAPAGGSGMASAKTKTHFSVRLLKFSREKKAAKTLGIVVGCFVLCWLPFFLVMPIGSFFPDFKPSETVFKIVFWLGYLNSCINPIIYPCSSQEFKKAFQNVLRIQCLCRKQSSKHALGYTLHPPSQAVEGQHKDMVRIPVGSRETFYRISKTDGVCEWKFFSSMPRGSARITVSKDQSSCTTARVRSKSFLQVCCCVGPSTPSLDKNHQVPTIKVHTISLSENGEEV
# assay: ADRA1A Eurofins SafetyScan (Receptor)
pEC50: −log10 of the molar value.
metric-name: pEC50

Problem: Please list pEC50 recorded for the compound `Cc1cn([C@H](C)CC#N)c(=O)c2cc(Cn3nc(C(F)F)cc3Cl)nn12`
Solution: < 5.00
